target: HIV-1 Env of isolate MGRM-D-016 (subtype D) (HIV-1); assay: cell-based or functional assay
Listed here: items and their measured IC50 (neutralization).

PGT-130 (antibody, V domains shown) VH: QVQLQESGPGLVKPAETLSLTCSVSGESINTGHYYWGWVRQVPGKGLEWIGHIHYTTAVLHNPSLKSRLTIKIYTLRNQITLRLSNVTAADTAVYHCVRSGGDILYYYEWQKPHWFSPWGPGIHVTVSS VL: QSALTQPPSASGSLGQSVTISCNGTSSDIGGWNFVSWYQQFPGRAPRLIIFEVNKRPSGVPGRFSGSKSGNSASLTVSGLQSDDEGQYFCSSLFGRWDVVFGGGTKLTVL = > 50 µg/mL

Now for the binder whose IC50 (neutralization) we want.
## Input For the binder PGT-137 (antibody, V domains shown) VH: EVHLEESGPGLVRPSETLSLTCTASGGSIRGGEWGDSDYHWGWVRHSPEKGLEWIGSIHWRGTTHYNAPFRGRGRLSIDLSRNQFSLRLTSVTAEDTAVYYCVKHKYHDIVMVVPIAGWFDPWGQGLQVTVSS VL: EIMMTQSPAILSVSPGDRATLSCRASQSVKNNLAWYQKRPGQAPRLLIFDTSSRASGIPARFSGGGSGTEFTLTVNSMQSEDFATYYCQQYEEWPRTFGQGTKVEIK , give its reported IC50 (neutralization).
## Output > 50 µg/mL
